These data points were gathered from patent US11414385B2.

- Tested on: P. falciparum strains D6, TM91-C235, W2, C2B
- test_details: Malaria SYBR Green I-Based Fluorescence (MSF) Assay
- Type: cell-based, Plasmodium falciparum
- settings: Plasmodium falciparum, TM91C235 strain; read-out: SYBR Green C235 IC50
observed_property: log10 IC50 (log10 of the value in µM)
Parameter value (number): base-10 log of IC50 in µM.

Problem: What value of measured log10 IC50 is listed for Cc1[nH]c2ccccc2c(=O)c1-c1ccc(Oc2ccc(Cl)cc2)c(O)c1 [RG38] ?
Result: 1.14

Problem: What value of measured log10 IC50 is listed for CCn1c(C)c(-c2ccc(Oc3ccccc3)cc2)c(=O)c2ccccc21 [JM10] ?
Result: 0.65

Problem: What value of measured log10 IC50 is listed for Cc1[nH]c2ncnn2c(=O)c1-c1ccc(Oc2ccc(OC(F)(F)F)cc2)cc1 [MJM136] ?
Result: -0.24

Problem: What value of measured log10 IC50 is listed for Cc1[nH]c2ccccc2c(=O)c1-c1ccc(Oc2ccccc2)cc1 [MJM129] ?
Result: -1.15

Problem: What value of measured log10 IC50 is listed for Cc1[nH]c2c(c(=O)c1-c1ccc(Oc3ccccc3)cc1)CCCC2 [MJM170] ?
Result: -1.52

Problem: What value of measured log10 IC50 is listed for Cc1[nH]c2c(C#N)cnn2c(=O)c1-c1ccc(Oc2ccc(OC(F)(F)F)cc2)cc1 [JAG014] ?
Result: 0.13

Problem: What value of measured log10 IC50 is listed for CSc1nc2[nH]c(C)c(-c3ccc(Oc4ccc(OC(F)(F)F)cc4)cc3)c(=O)n2n1 [JAG013] ?
Result: 0.41

###

- Test system: P. falciparum strains D6, TM91-C235, W2, C2B
- test_details: Malaria SYBR Green I-Based Fluorescence (MSF) Assay
- Format: cell-based, Plasmodium falciparum
- settings: D6 strain; read-out: SYBR Green D6 IC50
observed_property: IC50 (µM)
Please reply with the bare figure in µM and do not write the unit itself.

Problem: What value of measured IC50 is listed for `Cc1[nH]c2ccccc2c(=O)c1-c1ccc(Oc2ccc(Cl)cc2)c(O)c1` ?
Result: 2.88

###

- test_details: Aqueous kinetic solubility pH 7.4
- Type: physicochemical
- settings: PBS, pH 7.4, aqueous buffer, kinetic from dmso stock, PBS pH 7.4
observed_property: solubility kinetic (µM)
Please reply with the bare figure in µM and do not write the unit itself.

Problem: What value of measured solubility kinetic is listed for `Cc1[nH]c2c(c(=O)c1-c1ccc(Oc3ccccc3)cc1)CCCC2` ?
Result: 2

Problem: What value of measured solubility kinetic is listed for `Cc1[nH]c2c(c(=O)c1-c1ccc(Oc3ccc(OC(F)(F)F)cc3)cc1)CCCC2` ?
Result: 7

Problem: What value of measured solubility kinetic is listed for `Cc1[nH]c2c(c(=O)c1-c1ccc(Oc3ccc(Cl)cc3)cc1)CCCC2` ?
Result: 16

###

- Test system: P. falciparum strains D6, TM91-C235, W2, C2B
- test_details: Malaria SYBR Green I-Based Fluorescence (MSF) Assay
- Type: cell-based, Plasmodium falciparum
- settings: Plasmodium falciparum, W2 strain; read-out: SYBR Green W2 IC50
For each entry below, report its pIC50 value.
Reminder that pIC50 is minus the log10 of a molar concentration.

Problem: What value of measured pIC50 is listed for CCn1c(C)c(-c2ccc(Oc3ccccc3)cc2)c(=O)c2ccccc21 [JM10] ?
Result: 5.27

Problem: What value of measured pIC50 is listed for Cc1[nH]c2c(c(=O)c1-c1ccc(Oc3ccccc3)cc1)CCCC2 [MJM170] ?
Result: 7.52

Problem: What value of measured pIC50 is listed for CSc1nc2[nH]c(C)c(-c3ccc(Oc4ccc(OC(F)(F)F)cc4)cc3)c(=O)n2n1 [JAG013] ?
Result: 5.63

Problem: What value of measured pIC50 is listed for Cc1[nH]c2ccccc2c(=O)c1-c1ccc(Oc2ccc(Cl)cc2)c(O)c1 [RG38] ?
Result: 5.03

Problem: What value of measured pIC50 is listed for Cc1[nH]c2ccccc2c(=O)c1-c1ccc(Oc2ccccc2)cc1 [MJM129] ?
Result: 7.10

Problem: What value of measured pIC50 is listed for Cc1[nH]c2c(C#N)cnn2c(=O)c1-c1ccc(Oc2ccc(OC(F)(F)F)cc2)cc1 [JAG014] ?
Result: 5.90

Problem: What value of measured pIC50 is listed for Cc1[nH]c2ncnn2c(=O)c1-c1ccc(Oc2ccc(OC(F)(F)F)cc2)cc1 [MJM136] ?
Result: 6.26

###

For each entry below, report its CC50 at 72 h value.
- test_details: Cytotoxicity assay with WST-1 in HFF
- Format: cell-based
- settings: human, human foreskin fibroblasts (HFF); read-out: HFF Toxicity CC50
Please reply with the bare figure in µM and do not write the unit itself.

Problem: What value of measured CC50 at 72 h is listed for `Cc1[nH]c2c(c(=O)c1-c1ccc(Oc3ccccc3)cc1)CCCC2` ?
Result: 20

Problem: What value of measured CC50 at 72 h is listed for Cc1[nH]c2ccccc2c(=O)c1-c1ccc(Oc2ccc(OC(F)(F)F)cc2)cc1 [ELQ 271, reference compound] ?
Result: 20

###

- Test system: P. falciparum strains D6, TM91-C235, W2, C2B
- test_details: Malaria SYBR Green I-Based Fluorescence (MSF) Assay
- Type: cell-based, Plasmodium falciparum
- settings: Plasmodium falciparum, D6 strain (drug sensitive); read-out: P. falciparum IC50
observed_property: IC50 (nM)
Please reply with the bare figure in nM and do not write the unit itself.

Problem: Provide the documented IC50 with P. falciparum strains D6, TM91-C235, W2, C2B as the system for Cc1[nH]c2ccccc2c(=O)c1-c1ccc(Oc2ccc(OC(F)(F)F)cc2)cc1 [ELQ 271, reference compound]
Result: 30

Problem: Provide the documented IC50 with P. falciparum strains D6, TM91-C235, W2, C2B as the system for `Cc1[nH]c2c(c(=O)c1-c1ccc(Oc3ccccc3)cc1)CCCC2`
Result: 10

###

- test_details: Microsomal metabolic stability, human
- Format: in vitro ADME
- settings: human, liver microsomes; read-out: Human liver microsomes T1/2
observed_property: half-life (h)
Please reply with the bare figure in h and do not write the unit itself.

Problem: What value of measured half-life is listed for Cc1[nH]c2c(c(=O)c1-c1ccc(Oc3ccccc3)cc1)CCCC2 [MJM170] ?
Result: 2.44
